Kd values by entry
test_target: T1, recombinant human PD-L1-His protein (Origincell Therapeutics Co., Ltd.) (human, UniProt Q9NZQ7 19-238, limits assumed)
T1 construct: not shown: His tag
T1 sequence (Q9NZQ7 19-238 limits assumed): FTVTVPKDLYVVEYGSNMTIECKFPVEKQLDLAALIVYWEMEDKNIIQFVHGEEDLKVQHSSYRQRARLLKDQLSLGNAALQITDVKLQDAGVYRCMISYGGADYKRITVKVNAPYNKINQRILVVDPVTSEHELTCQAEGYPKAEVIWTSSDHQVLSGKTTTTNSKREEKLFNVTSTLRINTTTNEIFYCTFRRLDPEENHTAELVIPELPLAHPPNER
method: BLI (Octet RED384), antibody on AHC sensor, PD-L1-His in solution
Answer format reminder: number followed by unit.

The examples below pair each entry with its known result.
## Task Which measured Kd value corresponds to PD-L1 antibody YN-035 (antibody, human IgG1, lambda, V domains shown, full-length IgG1,lambda) VH: QVQLVQSGAEVKKPGSSVKVSCKASRGPFSTYAISWVRQAPGQGLEWMGRIIPILGIANYAQKFQGRVTITADKSTSTAYMELSSLRSEDTAVYYCARTMEGYGFGNFDYWGQGTLVTVSS VL: QSALTQPASVSGSPGQSITISCTGTVSEVGGYNEVSWYQQHPGKAPKLMIYGNSNRPSGVSNRFSGSKSGNTASLTISGLQAEDEADYYCQSYDSSLSGTVFGGGTKLTVLG ?
## Result 0.452 nM

## Task If you can, please state the reported Kd value of PD-L1 antibody YN-038 (antibody, human IgG1, lambda, V domains shown, full-length IgG1,lambda) VH: QVQLVQSGAEVKKPGSSVKVSCKASRGPFSTYAISWVRQAPGQGLEWMGRIIPILGIANYAQKFQGRVTITADKSTSTAYMELSSLRSEDTAVYYCARTMGEYSYGNYDYWGQGTLVTVSS VL: QSALTQPASVSGSPGQSITISCTGTRSDVGGYNEVSWYQQHPGKAPKLMIYENSIRPSGVSHRFSGSKSGNTASLTISGLQAEDEADYYCQSYDSSLSGTVFGGGTKLTVLG .
## Result 0.447 nM

Alright, here's another binder for you.
## Task State the recorded Kd for this entry: PD-L1 antibody YN-036 (antibody, human IgG1, lambda, V domains shown, full-length IgG1,lambda) VH: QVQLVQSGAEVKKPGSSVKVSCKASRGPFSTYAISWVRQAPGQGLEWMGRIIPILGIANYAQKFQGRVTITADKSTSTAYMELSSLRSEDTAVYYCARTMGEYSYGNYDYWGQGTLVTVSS VL: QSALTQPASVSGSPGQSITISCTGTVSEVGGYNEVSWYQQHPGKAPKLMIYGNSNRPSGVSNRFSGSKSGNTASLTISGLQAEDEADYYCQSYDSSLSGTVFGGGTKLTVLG
## Result 0.474 nM

These entries and their values trace back to patent US20210261677A1.
